Below, each of the compounds is paired with its reported pEC50 value.
# measured on: GLP1R (Homo sapiens, UniProt P43220)
# Sequence (P43220 24-463): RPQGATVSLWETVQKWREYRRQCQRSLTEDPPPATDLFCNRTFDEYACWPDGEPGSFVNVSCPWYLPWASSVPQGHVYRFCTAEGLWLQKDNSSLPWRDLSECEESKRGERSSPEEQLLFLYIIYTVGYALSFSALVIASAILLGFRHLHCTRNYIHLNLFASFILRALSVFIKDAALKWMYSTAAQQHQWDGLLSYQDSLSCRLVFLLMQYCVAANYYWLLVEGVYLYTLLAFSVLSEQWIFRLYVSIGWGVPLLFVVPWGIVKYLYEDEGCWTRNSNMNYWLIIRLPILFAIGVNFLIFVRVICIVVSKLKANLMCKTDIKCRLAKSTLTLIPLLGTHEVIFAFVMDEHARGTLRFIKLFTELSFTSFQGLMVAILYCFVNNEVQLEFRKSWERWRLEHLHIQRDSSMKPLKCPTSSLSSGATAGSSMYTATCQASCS
# assay: GLP1R cAMP HTRF assay, HEK293/GLP-1R/CRE/Luc (HEK293T cells)
# Format: cell-based
# measurement context: read-out: EC50
pEC50: −log10 of the molar value.

Reference set (3 entries):
O=c1[nH]c(-c2ccc3nc(CN4CC=C(c5cccc(OCc6ccc(Cl)cc6F)n5)CC4)n(C[C@@H]4CCO4)c3c2)no1 [Compound 62]    ≥ 6.82
N#Cc1ccc(COc2cccc(N3CCC(Cc4nc5ccc(C(=O)O)c(F)c5n4C[C@@H]4CCO4)CC3)n2)nc1 [Compound 233]    ≥ 6.82
O=C(O)c1ccc2nc(CN3CC=C(c4cccc(OCc5cc(Cl)cc(Cl)c5)n4)CC3)n(C[C@@H]3CCO3)c2c1 [Compound 139]    ≥ 6.82

Request: Entry O=C(O)c1ccc2nc(CN3CC=C(c4cccc(OCc5cccc(C(F)(F)F)c5)n4)CC3)n(C[C@@H]3CCO3)c2c1 [Compound 134] has what pEC50?
Response: ≥ 7.82

Request: Entry CC(C)c1ccc(COc2cccc(C3=CCN(Cc4nc5ccc(C(=O)O)cc5n4C[C@@H]4CCO4)CC3)n2)cc1 [Compound 148] has what pEC50?
Response: ≥ 7.82

Request: Entry N#Cc1ccc(COc2cncc(N3CCN(Cc4nc5ccc(C(=O)O)cc5n4C[C@@H]4CCO4)CC3)n2)c(F)c1 [Compound 12] has what pEC50?
Response: ≥ 7.82

Request: Entry O=C(O)c1ccc2nc(CN3CCN(c4ccc(=O)n(Cc5ccc(Cl)cc5F)n4)CC3)n(C[C@@H]3CCO3)c2c1 [Compound 7] has what pEC50?
Response: < 6.00

Request: Entry O=C(O)c1ccc2nc(CN3CC=C(c4cccc(OCc5ccc(OC(F)(F)F)cc5)n4)CC3)n(C[C@@H]3CCO3)c2c1 [Compound 120] has what pEC50?
Response: ≥ 7.82

Request: Entry O=C(O)c1ccc2nc(CN3CC=C(c4cccc(OCc5ccc(-n6ccnc6)cc5)n4)CC3)n(C[C@@H]3CCO3)c2n1 [Compound 245] has what pEC50?
Response: ≥ 7.82

Request: Entry O=C(O)c1ccc2nc(CN3CC=C(c4cccc(OCc5ccc(Cl)cn5)n4)CC3)n(C[C@@H]3CCO3)c2c1 [Compound 116] has what pEC50?
Response: ≥ 7.82

Request: Entry N#Cc1ccc(COc2cccc(N3CCN(Cc4nc5ccc(C(=O)O)cc5n4C[C@@H]4CCO4)CC3)c2)c(F)c1 [Compound 193] has what pEC50?
Response: ≥ 6.82

Request: Entry N#Cc1ccc(COc2cncc(C3=CCN(Cc4nc5ccc(C(=O)O)cc5n4C[C@@H]4CCO4)CC3)n2)c(F)c1 [Compound 23] has what pEC50?
Response: ≥ 7.82

Request: Entry O=C(O)c1ccc2nc(CN3CCN(c4ccc5c(n4)N(Cc4ccc(Cl)cc4F)CCC5)CC3)n(C[C@@H]3CCO3)c2c1 [Compound 3] has what pEC50?
Response: < 6.00

Request: Entry O=C(O)c1ccc2nc(CN3CC=C(c4cccc(OCc5ccc(Cl)cc5F)c4)CC3)n(C[C@@H]3CCO3)c2c1F [Compound 237] has what pEC50?
Response: ≥ 7.82
